Test system: NAD-dependent protein deacetylase sirtuin-2 (Homo sapiens, UniProt Q8IXJ6)
Sequence (Q8IXJ6 whole entry, the tested form may be a part): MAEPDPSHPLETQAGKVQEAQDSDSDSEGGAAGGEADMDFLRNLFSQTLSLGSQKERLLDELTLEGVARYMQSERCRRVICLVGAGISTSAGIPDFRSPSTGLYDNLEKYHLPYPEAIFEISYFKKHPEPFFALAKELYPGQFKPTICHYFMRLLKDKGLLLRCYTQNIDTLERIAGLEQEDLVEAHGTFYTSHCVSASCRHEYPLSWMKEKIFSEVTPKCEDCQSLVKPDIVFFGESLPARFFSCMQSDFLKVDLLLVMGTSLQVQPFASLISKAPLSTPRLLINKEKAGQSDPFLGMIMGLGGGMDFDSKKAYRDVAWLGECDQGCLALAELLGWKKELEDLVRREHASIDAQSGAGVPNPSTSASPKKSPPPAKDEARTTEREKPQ
Method notes: Inhibition of recombinant His-tagged SIRT2 (56 to 356 residues) (unknown origin) expressed in Escherichia coli Transetta(DE3) using AcIQF as substrate preincubated for 30 mins followed by substrate and NAD+ addition measured after 2 hrs by fluorescence assay
Details: read-out: IC50
pIC50: −log10 of the molar value.
Readout: pIC50

Recorded pIC50, per entry:
Compound	pIC50
Cc1cc(C)nc(SCC(=O)Nc2cccc(COc3ccc(NC(=O)c4ccco4)cc3)c2)n1	5.51
Cc1cc(C)nc(SCC(=O)Nc2cccc(COc3cccc(NC(=O)C4CCCN4)c3)c2)n1 (stereo unspecified)	3.85
CCOCC(=O)Nc1ccc(OCc2cccc(NC(=O)CSc3nc(C)cc(C)n3)c2)cc1	3.96
Cc1cc(C)nc(SCC(=O)Nc2cccc(COc3ccc(NC(=O)CCCN[C@@H]4CCCC[C@H]4O)cc3)c2)n1	3.76
Cc1cc(C)nc(SCC(=O)Nc2cccc(COc3ccc(NC(=O)CCN)cc3)c2)n1	3.52
Cc1cc(C)nc(SCC(=O)Nc2cccc(COc3cccc(NC(=O)c4cccs4)c3)c2)n1	3.89
Cc1cc(C)nc(SCC(=O)Nc2cccc(COc3ccccc3)c2)n1	4.59
Cc1cc(C)nc(SCC(=O)Nc2cccc(COc3ccc(NC(=O)c4cnn(C)c4)cc3)c2)n1	6.09
CC(C)n1cnc(SCC(=O)Nc2cccc(COc3ccc(NC(=O)c4cccs4)cc3)c2)n1	3.85
Cc1cc(C)nc(SCC(=O)Nc2cccc(COc3cccc(NC(=O)C4CCOCC4)c3)c2)n1	3.77

I: CNC(=S)NCCC(=O)Nc1ccc(OCc2cccc(NC(=O)CSc3nc(C)cc(C)n3)c2)cc1
II: CC(C)n1ncnc1SCC(=O)Nc1cccc(COc2ccc(NC(=O)c3cccs3)cc2)c1
III: Cc1cc(C)nc(SCC(=O)Nc2cccc(COc3ccc(NC(=O)C4CCCN4C(=O)OC(C)(C)C)cc3)c2)n1 (stereo unspecified)
Data request: Sort the 3 compounds by pIC50; largest first, smallest last. Answer by writing out the labels in the requested order.
Data returned: I, III, II

###

Test system: NAD-dependent protein deacetylase sirtuin-2 (Homo sapiens)
Method notes: Inhibition of recombinant His-tagged SIRT2 (56 to 356 residues) (unknown origin) expressed in Escherichia coli Transetta(DE3) using AcIQF as substrate preincubated for 30 mins followed by substrate and NAD+ addition measured after 2 hrs by fluorescence assay
Details: read-out: IC50
Readout: IC50 (µM)

Recorded IC50, per entry:
Compound	Endpoint result
Cc1cc(C)nc(SCC(=O)Nc2cccc(COc3ccc(NC(=O)OC(C)(C)C)cc3)c2)n1	100
CNC(=S)NCCCC(=O)Nc1ccc(OCc2cccc(NC(=O)CSc3nc(C)cc(C)n3)c2)cc1	9.56
Cc1cc(C)nc(SCC(=O)Nc2cccc(COc3ccc(NC(=O)C4CCCN4)cc3)c2)n1 (stereo not drawn)	41.3
Cc1cc(C)nc(SCC(=O)Nc2cccc(COc3ccc(NC(=O)c4cccs4)cc3)c2)n1	3.41
C/C=C/C(=O)Nc1ccc(OCc2cccc(NC(=O)CSc3nc(C)cc(C)n3)c2)cc1	89.3
Cc1cc(C)nc(SCC(=O)Nc2cccc(COc3cccc(NC(=O)c4ccco4)c3)c2)n1	123

I: Cc1cc(C)nc(SCC(=O)Nc2cccc(COc3cccc(NC(=O)c4cnn(C)c4)c3)c2)n1
II: Cc1cc(C)nc(SCC(=O)Nc2cccc(COc3ccc(NC(=O)c4ccccn4)cc3)c2)n1
Data request: Hey, between I and II which has a smaller measured IC50? Pick one; state its label.
Data returned: II
(II: 29.4 µM, I: 93.7 µM)

###

Below, each entry is listed alongside its reported IC50.
Test system: NAD-dependent protein deacetylase sirtuin-2 (Homo sapiens)
Method notes: Inhibition of recombinant His-tagged SIRT2 (56 to 356 residues) (unknown origin) expressed in Escherichia coli Transetta(DE3) using AcIQF as substrate preincubated for 30 mins followed by substrate and NAD+ addition measured after 2 hrs by fluorescence assay
Details: read-out: IC50

Recorded IC50, per entry:
Cc1cc(C)nc(SCC(=O)Nc2cccc(COc3cccc(NC(=O)c4ccccn4)c3)c2)n1 > 300 µM
COc1cccc(SCC(=O)Nc2cccc(COc3ccc(NC(=O)c4cccs4)cc3)c2)c1 > 300 µM
Cn1cc(C(=O)Nc2ccc(OCc3cccc(NC(=O)CSc4nnc5ccccn45)c3)cc2)cn1 > 300 µM
Cc1cccc(SCC(=O)Nc2cccc(COc3ccc(NC(=O)c4cccs4)cc3)c2)c1 > 300 µM
Cc1cc(C)nc(SCC(=O)Nc2cccc(COc3ccc(NC(=O)CNC(=O)OCc4ccccc4)cc3)c2)n1 > 300 µM

For reference, reported IC50 for Cc1cc(C)nc(SCC(=O)Nc2cccc(COc3ccc(NC(=O)C4CCOCC4)cc3)c2)n1 stands at 1.32 µM

For reference, reported IC50 for O=C(COc1cccc2ccccc12)Nc1cccc(COc2ccc(NC(=O)c3cccs3)cc2)c1 stands at > 300 µM

For reference, reported IC50 for O=C(CSc1nc[nH]n1)Nc1cccc(COc2ccc(NC(=O)c3cccs3)cc2)c1 stands at > 300 µM

###

Test system: NAD-dependent protein deacetylase sirtuin-2 (Homo sapiens)
Method notes: Inhibition of recombinant His-tagged SIRT2 (56 to 356 residues) (unknown origin) expressed in Escherichia coli Transetta(DE3) using AcIQF as substrate preincubated for 30 mins followed by substrate and NAD+ addition measured after 2 hrs by fluorescence assay
Details: read-out: IC50
Readout: IC50 (µM)

A: Cc1cc(C)nc(SCC(=O)Nc2cccc(COc3cccc(NC(=O)C4CCCN4C(=O)OC(C)(C)C)c3)c2)n1 (stereo not given)
B: Cc1cc(C)nc(SCC(=O)Nc2cccc(COc3ccc(NC(=O)CCNC(=O)OC(C)(C)C)cc3)c2)n1
C: Cn1nnnc1SCC(=O)Nc1cccc(COc2ccc(NC(=O)c3cccs3)cc2)c1
D: Cc1cc(C)nc(SCC(=O)Nc2cccc(COc3ccc(NC(=O)CCCN)cc3)c2)n1
Data request: Arrange the 4 molecules from largest to smallest IC50. Answer by writing out the labels in the requested order.
Data returned: B, D, C, A
(B: 300 µM, D: 70.6 µM, C: 44.5 µM, A: 15.2 µM)
